- assay_target: T1, Human CD19-his protein (human, UniProt P15391 20-291)
- T1 construct: bought protein; also called human CD19 protein; recombinant human CD19-His; not shown: His tag
- T1 sequence (looked up): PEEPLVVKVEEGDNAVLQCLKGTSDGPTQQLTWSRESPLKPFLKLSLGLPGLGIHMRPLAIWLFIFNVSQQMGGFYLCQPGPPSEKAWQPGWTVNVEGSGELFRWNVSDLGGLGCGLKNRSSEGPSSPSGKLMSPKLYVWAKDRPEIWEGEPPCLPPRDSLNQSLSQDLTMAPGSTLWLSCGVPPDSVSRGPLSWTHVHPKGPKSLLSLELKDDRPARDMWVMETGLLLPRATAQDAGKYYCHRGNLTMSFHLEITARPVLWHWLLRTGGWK
- method_description: ELISA, antibody at 0.001 nM
Everything with OD450 lower than 0.06 is rule not met; everything else, including exactly 0.06, is rule met.

[
  {
    "binder": "F4.18.13 (antibody, human IgG1, V domains shown, human-murine chimeric antibody, human IgG1) VH: QVQLQQSGPELVKPGASVKISCKASGYAFSSFWMNWVKQRPGEGLEWIGRIYPGDGDTNYNGKFKGKATLTADDSSSTAYMQLSSLTSVDSAVYFCAREVIAAVVTTDFDYWGQGTTLTVSS VL: DIQMTQTTSSLSASLGDRVTISCRTSQDISNYLNWYLQKPDGTVKLLIYYTSGLHSGVPSRFSGSGSGTDYSLTISNLEPEDIATYFCQQGKTLPYTFGGGTKLEIK",
    "assigned_category": "rule met"
  },
  {
    "binder": "F4.82.11 (antibody, human IgG1, V domains shown, human-murine chimeric antibody, human IgG1) VH: QVTLKESGPGILQASQTLSLTCSFSGFSLSTFGIGVGWVRQPSGKGLEWLAHIWWNDNKFFNTTLKNRLTLSKDPSNNQVFLKIASVDTADTATYYCARSRSALITTGLYAMDYWGQGTSVTVSS VL: DIQMTQTPSSLSASLGDRVTISCRSSQDISNYVNWYQQKPDGTVKVLINYTSRLHSGVPSRFSGSGSGTDYSLTISNLEQEDIASYFCQQGFTLPYTFGGGTKLEIK",
    "assigned_category": "rule met"
  },
  {
    "binder": "F2.15.26 (antibody, human IgG1, V domains shown, human-murine chimeric antibody, human IgG1) VH: QVQLKESGPGLVAPSQSLSITCTVSGFSLTDYGVSWIRQSPGKGLEWLGVIWGSGDTYYNSVLESRLSINKDNSKNQVFLKMNSLQTDDAAMYFCAKHSYYGGSFAMDYWGQGTSVTVSS VL: DIQMTQTTSSLSASLGDRVTISCRASQDISNYLNWYQQKPDGTVKLLIYYTSRLHSGVPSRFSGSGSGTDYSLTISNLEQEDIATYFCQQGKTLPWTFGGGTKLEIK",
    "assigned_category": "rule met"
  },
  {
    "binder": "F4.58.6 (antibody, human IgG1, V domains shown, human-murine chimeric antibody, human IgG1) VH: QVQLQQPGAELVKPGASVKLSCKASGYTFTSYWMHWVKQRPGQGLEWIGEIDPSDSYSNYNQKFKGKATLTVDKSSSTAYMQLSSLTSEDSAVYYCARSNYGSSYGYFDVWGAGTTVTVSS VL: QIVLTQSPAIMSASPGEKVTMTCSVSSSLSYMHWYQQKPGTSPKRWIYDTSKLASGVPARFSGSGSGTSYSLTISSMEAEDAATYYCHQRSSYPTFGGGTKLEIK",
    "assigned_category": "rule not met"
  }
]
